# target or test system: T1, Trypsin, Iodination grade, from human pancreas (human, UniProt P07477 24-247)
# T1 construct: purified natural enzyme, bought
# assay details: enzyme inhibition, pNA substrate
% inhibition at 100 µM for assorted binders
result type: % inhibition at 100 µM (%)

binder: XCTASIPPQCY (HELM PEPTIDE1{[Nle].C.T.A.S.I.P.P.Q.C.Y.[dP].F}$PEPTIDE1,PEPTIDE1,2:R3-10:R3|PEPTIDE1,PEPTIDE1,1:R1-13:R2$$$V2.0; SMILES CCCC[C@@H]1NC(=O)[C@H](Cc2ccccc2)NC(=O)[C@H]2CCCN2C(=O)[C@H](Cc2ccc(O)cc2)NC(=O)[C@@H]2CSSC[C@H](NC1=O)C(=O)N[C@@H]([C@@H](C)O)C(=O)N[C@@H](C)C(=O)N[C@@H](CO)C(=O)N[C@@H]([C@@H](C)CC)C(=O)N1CCC[C@H]1C(=O)N1CCC[C@H]1C(=O)N[C@@H](CCC(N)=O)C(=O)N2) [Example 122]
result value: 19
--
binder: XCTASIPPQCX (HELM PEPTIDE1{[Nle].C.T.A.S.I.P.P.Q.C.[Phg].[dP].P}$PEPTIDE1,PEPTIDE1,2:R3-10:R3|PEPTIDE1,PEPTIDE1,1:R1-13:R2$$$V2.0; SMILES CCCC[C@@H]1NC(=O)[C@@H]2CCCN2C(=O)[C@H]2CCCN2C(=O)[C@H](c2ccccc2)NC(=O)[C@@H]2CSSC[C@H](NC1=O)C(=O)N[C@@H]([C@@H](C)O)C(=O)N[C@@H](C)C(=O)N[C@@H](CO)C(=O)N[C@@H]([C@@H](C)CC)C(=O)N1CCC[C@H]1C(=O)N1CCC[C@H]1C(=O)N[C@@H](CCC(N)=O)C(=O)N2, also called Ex. 98) [Example 98]
result value: 0
